experiment: Peptide stability in simulated intestinal fluid (SIF); assay type: in vitro ADME; details: pig, simulated intestinal fluid (SIF) with porcine pancreatin; 4 h, 37 °C, pH 6.8, porcine pancreatin 10 g/L, 10 µM; read-out: SIF (% remaining 4 h)
*1 amine or outer side, *2 acyl side, *3 side chain or, on linkers, in order; H or OH if unused. Where a SMILES comes first, the peptide text is derived from it. Bridges are numbered along the chain shown (N, C = ends). [ ]: non-standard residue; d: D form. 2Nal = N[C@@H](Cc1ccc2ccccc2c1)C(=O)O; AEF = NCCOc1ccc(C[C@H](N)C(=O)O)cc1; X1 = O=C(Cc1ccc(CN[*:1])cc1)[*:2]; 3Pal = N[C@@H](Cc1cccnc1)C(=O)O; αMeL = CC(C)C[C@](C)(N)C(=O)O; Dab = NCC[C@H](N)C(=O)O
measurement name: remaining at 4 h, 10 µM (%)
Answer with a number only, understood to be in %.

Solved entries:
# compound, remaining at 4 h, 10 µM / %
rows = [
    ("CNC(=O)[C@H](Cc1cccnc1)NC(=O)[C@H](CCO)NC(=O)[C@@H]1CCC(=O)NCc2ccc(cc2)CC(=O)N[C@@H](CO)C(=O)N[C@H]2CCC(=O)NCC[C@H](NC(=O)[C@H](CCC(N)=O)NC(=O)[C@H](Cc3c[nH]c4ccccc34)NC2=O)C(=O)N[C@@H](Cc2ccc(OCCN)cc2)C(=O)N[C@@H](Cc2ccc3ccccc3c2)C(=O)N[C@@](C)(CC(C)C)C(=O)N1 [Compound 36]", 55),
    ("CNC(=O)[C@H](Cc1cccnc1)NC(=O)[C@H](CCN)NC(=O)[C@@H]1CCC(=O)NCc2ccc(cc2)CC(=O)N[C@@H](CO)C(=O)N[C@H]2CCC(=O)NCC[C@H](NC(=O)[C@H](CCNC(C)=O)NC(=O)[C@H](Cc3c[nH]c4ccccc34)NC2=O)C(=O)N[C@@H](Cc2ccc(OCCN)cc2)C(=O)N[C@@H](Cc2ccc3ccccc3c2)C(=O)N[C@@](C)(CC(C)C)C(=O)N1 [Compound 25] ([X1]SEW[Dab](Ac)[Dab][AEF][2Nal][αMeL]E[Dab][3Pal]-NHMe; lactam 3-6, N-10)", 91),
    ("CNC(=O)[C@H](Cc1cccnc1)NC(=O)[C@H](CCN)NC(=O)[C@@H]1CCC(=O)NCc2ccc(cc2)CC(=O)N[C@@H](C)C(=O)N[C@H]2CCC(=O)NCC[C@H](NC(=O)[C@H](CCC(N)=O)NC(=O)[C@H](Cc3c[nH]c4ccccc34)NC2=O)C(=O)N[C@@H](CCc2ccccc2)C(=O)N[C@@H](Cc2ccc3ccccc3c2)C(=O)NC(C)(C)C(=O)N1 [Compound 41]", 95),
    ("CNC(=O)[C@H](Cc1cccnc1)NC(=O)[C@H](CCC(N)=O)NC(=O)[C@@H]1CCC(=O)NCc2ccc(cc2)CC(=O)N[C@@H](CO)C(=O)N[C@H]2CCC(=O)NCC[C@H](NC(=O)[C@H](CCC(N)=O)NC(=O)[C@H](Cc3c[nH]c4ccccc34)NC2=O)C(=O)N[C@@H](Cc2ccc(OCCN)cc2)C(=O)N[C@@H](Cc2ccc3ccccc3c2)C(=O)N[C@@](C)(CC(C)C)C(=O)N1 [Compound 33] ([X1]SEWQ[Dab][AEF][2Nal][αMeL]EQ[3Pal]-NHMe; lactam 3-6, N-10)", 69),
    ("CNC(=O)[C@H](Cc1cccnc1)NC(=O)[C@H](CCN)NC(=O)[C@@H]1CCC(=O)NCc2ccc(cc2)CC(=O)N[C@@H](C)C(=O)N[C@H]2CCC(=O)NCC[C@H](NC(=O)[C@H](CCC(N)=O)NC(=O)[C@H](Cc3c[nH]c4ccccc34)NC2=O)C(=O)N[C@@H](Cc2ccc(OCCN)cc2)C(=O)N[C@@H](Cc2ccc3ccccc3c2)C(=O)N[C@@](C)(CC(C)C)C(=O)N1 [Compound 20]", 90),
    ("CCCC[C@H](NC(=O)[C@@H]1CCC(=O)NCc2ccc(cc2)CC(=O)N[C@@H](CO)C(=O)N[C@H]2CCC(=O)NCC[C@H](NC(=O)[C@H](CCC(N)=O)NC(=O)[C@H](Cc3c[nH]c4ccccc34)NC2=O)C(=O)N[C@@H](Cc2ccc(OCCN)cc2)C(=O)N[C@@H](Cc2ccc3ccccc3c2)C(=O)N[C@@](C)(CC(C)C)C(=O)N1)C(=O)N[C@@H](Cc1cccnc1)C(=O)NC [Compound 32]", 65),
]

// query Return the recorded remaining at 4 h, 10 µM value; entry: CNC(=O)[C@H](Cc1cccnc1)NC(=O)[C@H](COC)NC(=O)[C@@H]1CCC(=O)NCc2ccc(cc2)CC(=O)N[C@@H](CO)C(=O)N[C@H]2CCC(=O)NCC[C@H](NC(=O)[C@H](CCC(N)=O)NC(=O)[C@H](Cc3c[nH]c4ccccc34)NC2=O)C(=O)N[C@@H](Cc2ccc(OCCN)cc2)C(=O)N[C@@H](Cc2ccc3ccccc3c2)C(=O)N[C@@](C)(CC(C)C)C(=O)N1 [Compound 37]
// result 69
